Values were extracted from PubChem BioAssay.

Biological target: Luciferin 4-monooxygenase (Photinus pyralis)
Assay: firefly luciferase enzyme inhibitors, primary screen, biochemical, luminescence, purified enzyme, 2006 set (AID 1141);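 note: cell-free assay with purified firefly luciferase at 100 ng per well in PBS; test concentration not given here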
Conditions: SteadyGlo luminescence, 30 min, higher = more signal, called active from +8 up or from −8 down
Respond with yes (1) for z-score values of -0.1 and above, no (0) for values below.

CC(C)CNC(=O)[C@@]1(c2ccc([N+](=O)[O-])cc2)CC(=O)N(C2CCCCC2)[C@@H]1c1ccc(CO)cc1I    no (0)
CCCCN1CC=CC23O[C@@H]4C=CCOC(=O)[C@@H]4[C@H]2C(=O)N(C(C)CO)[C@@H]3C1=O (some centres undefined)    no (0)
CC(C)CN1C(=O)[C@@]2(c3ccc([N+](=O)[O-])cc3)CC(=O)N(CC34CC5CC(CC(C5)C3)C4)[C@@H]2c2ccc(CO)cc21    yes (1)

// inclusive: z-score at least -0.1? input: `C=C[C@H](COC(C)=O)NS(=O)(=O)c1ccc(Br)cc1` no (0)

Check this compound for z-score at or above -0.1: COc1cc(OC)c(C(O)C2C=CC3C(=O)N(c4ccccc4)C(=O)C3N2Nc2ccc(C#N)cc2)cc1Br (centres undefined) yes (1)

State whether the measured z-score reaches -0.1, counting equality as reaching it, for CC1CC/C=C\[C@H]2OC34C=CCN(c5ccc6ccccc6c5)C(=O)[C@H]3N(C(CO)C(C)C)C(=O)[C@@H]4C2C(=O)O1 (some centres undefined) no (0)

Is z-score at least -0.1? Consider `COCCCNC(=O)[C@]1(CCC(=O)OC(C)(C)C)N=C(c2ccc(OCCCO)cc2)O[C@@H]1c1ccccc1` no (0)

z-score >= -0.1 for `C=C(CCCC)/C(=C/C[C@@H](OC(=O)c1ccncc1)c1cccc(OCCO)c1)c1cnc2ccccc2c1` ? no (0)
